method: Solubility by gravimetric method in 14 solvents
Type: physicochemical
condition_context: isopropanol (IPA), organic solvent or mixture, thermodynamic from solid; IPA, 23 °C
Description: Solubility measurements were done by gravimetric method in 14 different solvents at two temperatures (23° C. and 50° C.). About 25-35 mg solid was dispensed in 2 mL vials and 0.75 mL solvent was added to form a slurry. The slurries were then stirred for two days. The vials were centrifuged and the supernatant was collected for solubility measurement by gravimetric method.

[
  {
    "compound": "CCNn1c(C)c(C(=O)N[C@H](c2ccccc2)C2CC2)c2cccc(F)c2c1=O [SJB-01]",
    "solubility at 2 days": "29 mg/mL"
  }
]

Recorded values, source patent US20210371385A1.
